- testSummary: Mouse PK assay
- Type: in vivo, B6 female mice
- testParameters: female, B6, mouse, plasma, po, 50 mg/kg
compounds and their reported AUC

compound: Cc1cc2cc(Nc3ccnc4cc(-c5nc(C(C)(C)O)cs5)sc34)ccc2n1C(=O)NC1CC1 [Example 3b]
AUC, ng·h/mL: 18800
//
compound: CNC(=O)n1c(C)cc2cc(Nc3ccnc4cc(C(=O)N5CCC[C@H]5COC)sc34)ccc21 [Example 1t]
AUC, ng·h/mL: 5860
//
compound: Cc1cc2cc(Nc3ccnc4cc(C(=O)N5CC[C@H](O)C5)sc34)ccc2n1C(=O)NC1CC1 [Example 1k]
AUC, ng·h/mL: 18
//
compound: CNC(=O)n1c(C)cc2c(F)c(Oc3ccnc4cc(C(=O)N5CCC[C@H]5CO)sc34)ccc21 [Example 5n]
AUC, ng·h/mL: 2560
//
compound: Cc1cc2cc(Nc3ccnc4cc(-c5nccn5C)sc34)ccc2n1C(=O)NC1CC1 [Example 2d]
AUC, ng·h/mL: 457
//
compound: Cc1cc2cc(Oc3ccnc4cc(C(=O)N5CC[C@@H](O)C5)sc34)ccc2n1C(=O)NC1CC1 [Example 4p]
AUC, ng·h/mL: 4630
//
compound: Cc1cc2cc(Nc3ccnc4cc(C(=O)N5CCC[C@H]5CO)sc34)ccc2n1C(=O)NC(C)C [Example 2g]
AUC, ng·h/mL: 542
//
compound: COC[C@@H]1CCCN1C(=O)c1cc2nccc(Oc3ccc4c(c3)cc(C)n4C(=O)NC3CC3)c2s1 [Example 4b]
AUC, ng·h/mL: 3640
//
compound: CNC(=O)n1c(C)cc2cc(Oc3ccnc4cc(C(=O)N5C[C@H](OC)C[C@H]5CO)sc34)ccc21 [Example 3o]
AUC, ng·h/mL: 2880
//
compound: Cc1cc2cc(Nc3ccnc4cc(C(=O)N5CCC[C@@H]5CO)sc34)ccc2n1C(=O)NC1CC1 [Example 1c]
AUC, ng·h/mL: 616
